# measurement protocol: Plasma stability assay, human plasma
# Assay type: in vitro ADME
# assay conditions: human, 120 min, 10 µM
# Protocol: Compound stability in rat and human plasma was measured by incubating compound with rat or human plasma at 37° C. in a microwell plate for sequential time points, monitoring pro-drug disappearance and metabolite appearance (mesembranol or 6-epi-mesembranol). A 2 mM stock solution of test compounds were prepared by dissolving appropriate amount of compounds in DMSO. […] The concentrations of test compounds and positive control were quantified in the test samples using LC-MS/MS. […]
Returns the class for an entry based on its Prodrug (%). Class ranges: low bracket (below 0.7%), middle bracket (0.7% to below 80%), high bracket (80% or more)

Illustrative cases are given below, each with its answer.
stdin: State the band of COc1ccc([C@@]23CC[C@@H](OC(=O)C(C)(C)C)C[C@@H]2N(C)CC3)cc1OC [Compound 202]
stdout: high bracket

stdin: Please report the category associated with CCCC(=O)O[C@H]1CC[C@@]2(c3ccc(OC)c(OC)c3)CCN(C)[C@H]2C1 [Compound 106] , nothing else.
stdout: middle bracket

stdin: Lab note: which band did COc1ccc([C@@]23CC[C@@H](OCOC(=O)C(C)C)C[C@@H]2N(C)CC3)cc1OC [Compound 208] land in?
stdout: low bracket

stdin: Assign a category based on measured Prodrug (%) for COc1ccc([C@@]23CC[C@@H](OC(=O)C(C)C)C[C@@H]2N(C)CC3)cc1OC [Compound 203] and give only the class name.
stdout: low bracket

stdin: Determine which band this compound sits in: CCCC(=O)OCO[C@@H]1CC[C@@]2(c3ccc(OC)c(OC)c3)CCN(C)[C@H]2C1 [Compound 210]
stdout: low bracket

stdin: Hi there! Could you help me figure out the category for CCOC(=O)O[C@@H]1CC[C@@]2(c3ccc(OC)c(OC)c3)CCN(C)[C@H]2C1 [Compound 209] please?
stdout: high bracket

stdin: Consider COc1ccc([C@@]23CC[C@H](OC(=O)C(C)C)C[C@@H]2N(C)CC3)cc1OC [Compound 103] . To which Prodrug (%) class does it belong?
stdout: high bracket

stdin: State the band of COc1ccc([C@@]23CC[C@H](OC(=O)N(C)C)C[C@@H]2N(C)CC3)cc1OC [Compound 101]
stdout: high bracket

stdin: Please let me know in which category the item CCCCC(=O)O[C@H]1CC[C@@]2(c3ccc(OC)c(OC)c3)CCN(C)[C@H]2C1 [Compound 105] belongs.
stdout: middle bracket

Now for another entry.
stdin: Sort into band: COc1ccc([C@@]23CC[C@H](OC(=O)C(C)(C)C)C[C@@H]2N(C)CC3)cc1OC [Compound 102]
stdout: high bracket
